Where do the numbers come from? From the supplement of paper PMC9694430.

- Test system: LOC_OS04G57630-cb004
- experiment: thermal shift delta Tm vs DMSO control; higher = stronger stabilization (binding);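 further: purified Escherichia coli-expressed rice kinase domain construct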
- experimental-context: 12.5 µM; protein concentration 2 µM
# Lookup of reported thermal shift delta Tm keyed by entry
Unit °C implied. Number only.

Example entries and their recorded answers appear below.
COc1cc(OC)cc(-c2cc3cnc(N)nc3nc2NC(=O)NC(C)(C)C)c1 | 0.07
O=C(Nc1ccc(-c2ccnc(Nc3ccc(N4CCOCC4)cc3)n2)cc1)C1CCCN1 (centres undefined) | 0.39
Cc1ccc([N+](=O)[O-])cc1S(=O)(=O)N(C)/N=C/c1cnc2ccc(Br)cn12 | 1.58

// below: thermal shift delta Tm requested for another molecule
Please respond with reported thermal shift delta Tm (system LOC_OS04G57630-cb004) for c1cncc(CN2CCC(n3ncc4c(N5CCOCC5)nc(-c5ccc6[nH]ccc6c5)nc43)CC2)c1 .
0.55

----------
# Lookup of reported thermal shift delta Tm keyed by entry
- Tested on: LOC_OS02G45750-cb003
- experiment: thermal shift delta Tm vs DMSO control; higher = stronger stabilization (binding)
- experimental-context: 12.5 µM; protein concentration 2 µM
Unit °C implied. Number only.

Example entries and their recorded answers appear below.
Cc1nc(Nc2n[nH]c3c2CN(C(=O)N[C@H](CN(C)C)c2ccccc2)C3(C)C)c2sccc2n1 | 0.94
CN1CCN(c2ccc(Nc3cc(-c4cccc(-n5ccc6cc(C7CC7)cc(F)c6c5=O)c4CO)cn(C)c3=O)nc2)CC1 | 0.34
Cc1cc(F)c(Nc2ncnc3cc(OCc4ccccc4)ccc23)cc1O | 0.78
COc1ccc2c(c1)[C@]1(C[C@H]1c1ccc3c(/C=C/c4ccc(CN5C[C@@H](C)O[C@@H](C)C5)cc4)n[nH]c3c1)C(=O)N2 | 9.37
C[C@H]1CNC(=O)c2cnn3ccc(nc23)N[C@H](C)c2cc(F)ccc2O1 | 3.54

Kindly indicate its recorded thermal shift delta Tm. Item: Cc1cc2c(F)c(Oc3ncnn4cc(OC[C@@H](C)OC(=O)[C@H](C)N)c(C)c34)ccc2[nH]1
1.3

Kindly indicate its recorded thermal shift delta Tm. Item: O=C(NOC[C@H](O)CO)c1ccc(F)c(F)c1Nc1ccc(I)cc1F
0.77

Kindly indicate its recorded thermal shift delta Tm. Item: CNc1nc(-c2ccc3c(N)n[nH]c3c2)cc(N2C[C@@H](C(=O)NC3CCCCC3)CC[C@H]2C)n1
0.45

Kindly indicate its recorded thermal shift delta Tm. Item: Cc1cc(C)c(/C=C2\C(=O)Nc3ccccc32)[nH]1 [Semaxanib (SU5416)]
0

Kindly indicate its recorded thermal shift delta Tm. Item: COc1ccc2[nH]cc(/C=C3\C(=O)Nc4ccc(NC(=O)CCN5CCCCC5)cc43)c2c1
4.5

Kindly indicate its recorded thermal shift delta Tm. Item: COc1cccc(-n2c(=O)[nH]c3cc(Cl)n(-c4ccc(-c5cccc(OC)c5O)cc4)c3c2=O)c1
0.85

Kindly indicate its recorded thermal shift delta Tm. Item: Cc1cc(Nc2cc(N)ncn2)c(=O)n2c1C(=O)NC21CCCCC1
0.8

Kindly indicate its recorded thermal shift delta Tm. Item: O=c1cc(N2CCOCC2)oc2c(-c3cccc4c3sc3ccccc34)cccc12
1.11

----------
- Tested on: LOC_OS05G43570-cb004
- experiment: thermal shift delta Tm vs DMSO control; higher = stronger stabilization (binding)
- experimental-context: 12.5 µM; protein concentration 2 µM
property-measured: thermal shift delta Tm (°C)
Unit °C implied. Number only.

Example entries and their recorded answers appear below.
N#CC1(c2ccc(NC(=O)c3cccnc3NCc3ccncc3)cc2)CCCC1 [Apatinib] | 0.51
CNC(=O)c1cccc(-c2ccc3c(N4CCOC[C@@H]4C)nc(N4CCOC[C@@H]4C)nc3n2)c1 [Vistusertib (AZD2014)] | 0.5

// below: thermal shift delta Tm requested for another molecule
Kindly indicate its recorded thermal shift delta Tm. Item: Cn1cc(-c2ccc3nnc(C(F)(F)c4ccc5ncccc5c4)n3n2)cn1
0.51

----------
- Tested on: LOC_OS05G16824-cb004
- experiment: thermal shift delta Tm vs DMSO control; higher = stronger stabilization (binding)
- experimental-context: 12.5 µM; protein concentration 2 µM
Note to self: values exactly at 3 °C are Condition met. So thermal shift delta Tm at or above 3 °C is Condition met, below is Condition not met.

Please tell me: is the compound C[C@@H]1CN(CC(=O)Nc2ccc3c(c2)Cc2cccc(-c4cc(=O)cc(N5CCOCC5)o4)c2S3)C[C@H](C)O1 at or over 3 °C in terms of thermal shift delta Tm?
Condition not met

Please tell me: is the compound COc1ccc(S(=O)(=O)N(C(C)=O)c2ccccc2/C=C/c2cc[n+]([O-])cc2)cc1 at or over 3 °C in terms of thermal shift delta Tm?
Condition not met

Please tell me: is the compound O=C1c2ccc(Nc3ccc(F)cc3F)cc2CCc2ccc(OC[C@H](O)CO)cc21 [Skepinone-L] at or over 3 °C in terms of thermal shift delta Tm?
Condition not met

Please tell me: is the compound FC(F)(F)c1ccc(Nc2nc3ccc(Oc4ccnc(-c5ncc(C(F)(F)F)[nH]5)c4)cc3[nH]2)cc1 at or over 3 °C in terms of thermal shift delta Tm?
Condition met

Please tell me: is the compound Cc1ccc(Nc2cc(N[C@@H]3CCCC[C@@H]3N)nnc2C(N)=O)nc1C at or over 3 °C in terms of thermal shift delta Tm?
Condition met

Please tell me: is the compound Oc1cc(O)cc(/C=C/c2ccc(O)c(O)c2)c1 at or over 3 °C in terms of thermal shift delta Tm?
Condition not met

----------
# Lookup of reported thermal shift delta Tm keyed by entry
- Test system: LOC_OS01G67340-cb003
- experiment: thermal shift delta Tm vs DMSO control; higher = stronger stabilization (binding)
- experimental-context: 12.5 µM; protein concentration 2 µM
Unit °C implied. Number only.

Example entries and their recorded answers appear below.
Nc1ccc(C(=O)Nc2cccc(-c3nc(N4CCOCC4)c4oc5ncccc5c4n3)c2)cn1 | -0.15
O=C(NOCC(O)CO)c1cc(Br)c(F)c(F)c1Nc1ccc(I)cc1F (stereo unspecified) | 0.03
COc1cc2nccc(Oc3ccc(NC(=O)C4(C(=O)Nc5ccc(F)cc5)CC4)cc3)c2cc1OC | 0.96
Cc1c(C(=O)Nc2ccc(Oc3ccnc4[nH]cc(-c5ccccc5)c34)c(F)c2)c(=O)n(-c2ccc(F)cc2)n1C | 1.81
COc1cc(N2CCC(N(C)C)CC2)ccc1Nc1ncc(Cl)c(Nc2ccccc2P(C)(C)=O)n1 | 1.45

// below: thermal shift delta Tm requested for another compound
Kindly indicate its recorded thermal shift delta Tm. Item: FC(F)(F)c1ccc(/C=C/c2nc(COc3ccc(CCCCn4ccnn4)cc3)co2)cc1
-0.98

----------
# Lookup of reported thermal shift delta Tm keyed by entry
- Tested on: LOC_OS02G54510-cb004
- experiment: thermal shift delta Tm vs DMSO control; higher = stronger stabilization (binding)
- experimental-context: 12.5 µM; protein concentration 2 µM
Unit °C implied. Number only.

Kindly indicate its recorded thermal shift delta Tm. Item: COc1cc(Nc2ncc(F)c(Nc3ccc4c(n3)NC(=O)C(C)(C)O4)n2)cc(OC)c1OC
4.62

Kindly indicate its recorded thermal shift delta Tm. Item: O=c1cc(-c2cccc3c2Sc2ccccc2S3)oc(N2CCOCC2)c1
-0.02

Kindly indicate its recorded thermal shift delta Tm. Item: O=C1NC(=O)/C(=C/c2cccc(C(F)(F)F)c2)S1
0.26

Kindly indicate its recorded thermal shift delta Tm. Item: Cn1cc(-c2ccc3ncc(Cc4ccc5ncccc5c4)n3n2)cn1
0.06

Kindly indicate its recorded thermal shift delta Tm. Item: CCn1c(=O)c(-c2ccc(-c3cncs3)cc2Cl)cc2cnc(Nc3ccc(N4CCN(C)CC4)cc3)nc21
0.43

Kindly indicate its recorded thermal shift delta Tm. Item: COc1ccc(/C=C/C(=O)C2(C(=O)/C=C/c3ccc(OC)c(OC)c3)CCCCC2)cc1OC
0.31

Kindly indicate its recorded thermal shift delta Tm. Item: CCS(=O)(=O)N1CC(CC#N)(n2cc(-c3ncnc4[nH]ccc34)cn2)C1
1.15

Kindly indicate its recorded thermal shift delta Tm. Item: O=c1c(-c2ccc(O)cc2)coc2cc(O)cc(O)c12 [Genistein]
-0.37

Kindly indicate its recorded thermal shift delta Tm. Item: COc1cc2c(N3CCN(C(=O)Nc4ccc(OC(C)C)cc4)CC3)ncnc2cc1OCCCN1CCCCC1 [Tandutinib (MLN518)]
0.74

Kindly indicate its recorded thermal shift delta Tm. Item: Cc1cc(CN2CCN(c3c(Br)cnc4nc(-c5ccc(N6CCN(C)CC6)cc5)[nH]c34)CC2)no1
0.56

----------
- Test system: LOC_OS01G52050-cb004
- Sequence (as listed by the source): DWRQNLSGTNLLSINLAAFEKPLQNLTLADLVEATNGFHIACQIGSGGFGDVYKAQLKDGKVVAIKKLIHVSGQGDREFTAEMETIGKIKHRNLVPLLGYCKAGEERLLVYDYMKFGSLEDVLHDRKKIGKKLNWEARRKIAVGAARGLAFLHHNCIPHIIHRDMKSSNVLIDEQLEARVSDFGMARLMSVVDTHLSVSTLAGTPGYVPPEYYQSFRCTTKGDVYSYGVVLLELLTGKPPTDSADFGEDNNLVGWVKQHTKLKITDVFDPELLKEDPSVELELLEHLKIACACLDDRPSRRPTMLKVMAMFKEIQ
- experiment: thermal shift delta Tm vs DMSO control; higher = stronger stabilization (binding)
- experimental-context: 12.5 µM; protein concentration 2 µM
property-measured: thermal shift delta Tm (°C)
Unit °C implied. Number only.

Kindly indicate its recorded thermal shift delta Tm. Item: N#CC[C@H](C1CCCC1)n1cc(-c2ncnc3[nH]ccc23)cn1
0.98
